Form field: IC50 (one value per entry).
# target desc: UniProtKB P05093
# Sequence (P05093 whole entry): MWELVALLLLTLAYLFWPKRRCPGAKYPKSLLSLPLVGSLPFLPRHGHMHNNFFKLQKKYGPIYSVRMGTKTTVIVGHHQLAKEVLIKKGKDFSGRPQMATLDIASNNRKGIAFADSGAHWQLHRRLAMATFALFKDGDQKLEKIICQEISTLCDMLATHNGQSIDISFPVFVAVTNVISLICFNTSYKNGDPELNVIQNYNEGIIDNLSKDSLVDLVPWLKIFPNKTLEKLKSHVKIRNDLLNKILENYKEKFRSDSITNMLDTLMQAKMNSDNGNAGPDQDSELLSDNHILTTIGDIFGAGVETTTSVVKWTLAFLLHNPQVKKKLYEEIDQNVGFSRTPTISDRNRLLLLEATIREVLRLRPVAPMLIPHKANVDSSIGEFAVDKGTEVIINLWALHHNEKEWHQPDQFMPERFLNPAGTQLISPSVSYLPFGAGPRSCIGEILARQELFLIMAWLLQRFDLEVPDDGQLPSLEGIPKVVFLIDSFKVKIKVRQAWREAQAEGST
# test summary: CYP17 inhibition assay in yeast microsomes overexpressing human CYP17
# Assay type: biochemical
# experimental context: yeast microsomes expressing human CYP17, 3H3-17α-hydroxypregnenolone substrate, 60 minutes at 37° C.
endpoint name: IC50

[
  {
    "compound": "CCC(c1ccc(-c2ccccc2OC)cn1)n1ccnc1 (centres unmarked)",
    "result": "201 to 10000 nM"
  },
  {
    "compound": "CCC(c1cnc(-c2ccc(O)cc2)s1)n1ccnc1 (centres unmarked)",
    "result": "201 to 10000 nM"
  },
  {
    "compound": "CCC(c1ccc(-c2cccc(OC)c2)cn1)n1ccnc1 (centres unmarked)",
    "result": "< 50 nM"
  },
  {
    "compound": "CCC(c1ccc(-c2ccc(OC)cc2)cn1)n1ccnc1 (centres unmarked)",
    "result": "201 to 10000 nM"
  },
  {
    "compound": "CCC(c1ccc(-c2ccc(OC)cc2)o1)n1ccnc1 (centres unmarked)",
    "result": "< 50 nM"
  }
]
